All figures here come from ChEMBL document CHEMBL1795208.

system: SK-BR-3; assay: Antiproliferative activity against human SKBR3 cells expressing HER2 after 72 hrs by MTS/PMS assay; type: functional, cell-based; details: SK-BR-3, 72 h
PROPERTY_NAME: IC50

Here's what some known entries look like.
- COc1cccc(-c2cc(C(=O)Nc3cc4ccc(OC5CCCN(C(C)=O)C5)c(C)c4oc3=O)ccc2OC)c1 (stereo not drawn): > 50 µM
- COc1cccc(-c2cc(C(=O)Nc3cc4ccc(O[C@@H]5OCCC[C@H]5O)c(C)c4oc3=O)ccc2OC)c1: > 100 µM

Returns the measured IC50 for the input compound. Input: `CNC(=O)Oc1ccc2cc(NC(=O)c3ccc(OC)c(-c4cccc(OC)c4)c3)c(=O)oc2c1OC`
> 100 µM

====

tested on: SK-BR-3; test: Antiproliferative activity against human SKBR3 cells expressing HER2 after 72 hrs by MTS/PMS assay; assay type: functional, cell-based; conditions: SK-BR-3, 72 h
Each item that follows carries a reported IC50.

Some molecules with recorded IC50:
* COc1cccc(-c2cc(C(=O)Nc3cc4cc(OC)c(OS(C)(=O)=O)c(C)c4oc3=O)ccc2OC)c1 | > 100 µM
* COc1cccc(-c2cc(C(=O)Nc3cc4ccc(O)c(OC)c4oc3=O)ccc2OC)c1 | > 100 µM

// switching to the query molecule
Find the recorded IC50 belonging to COc1cccc(-c2cc(C(=O)Nc3cc4ccc(OC5CC(C)C[C@@H](O)[C@H]5O)c(C)c4oc3=O)ccc2OC)c1 (stereo partly drawn) and report it.
> 100 µM
